target: Cannabinoid receptor 2 (Homo sapiens)
Sequence (P34972 whole entry): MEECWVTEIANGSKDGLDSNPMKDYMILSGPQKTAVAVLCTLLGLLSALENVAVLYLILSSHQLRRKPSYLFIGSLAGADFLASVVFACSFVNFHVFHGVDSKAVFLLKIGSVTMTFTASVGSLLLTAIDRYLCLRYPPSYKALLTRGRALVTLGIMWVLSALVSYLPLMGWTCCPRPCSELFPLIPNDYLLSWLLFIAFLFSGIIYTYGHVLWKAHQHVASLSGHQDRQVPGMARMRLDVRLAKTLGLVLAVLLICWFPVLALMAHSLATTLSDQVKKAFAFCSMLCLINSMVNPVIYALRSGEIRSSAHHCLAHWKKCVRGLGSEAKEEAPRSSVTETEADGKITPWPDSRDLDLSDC
Value kind: pIC50
Give only the number. pIC50 is defined as minus log10 of concentration in molar units.

For the molecule CCCNC(=O)c1cc(-c2ccc(Cl)cc2)c(-c2ccc(Cl)cc2Cl)nc1OCc1ccc(F)c(F)c1 , what pIC50 is on record?
6.09
